Please go through the items and note down their Ki.
- TEST_TARGET: UniProtKB P27922
- Sequence (P27922 whole entry): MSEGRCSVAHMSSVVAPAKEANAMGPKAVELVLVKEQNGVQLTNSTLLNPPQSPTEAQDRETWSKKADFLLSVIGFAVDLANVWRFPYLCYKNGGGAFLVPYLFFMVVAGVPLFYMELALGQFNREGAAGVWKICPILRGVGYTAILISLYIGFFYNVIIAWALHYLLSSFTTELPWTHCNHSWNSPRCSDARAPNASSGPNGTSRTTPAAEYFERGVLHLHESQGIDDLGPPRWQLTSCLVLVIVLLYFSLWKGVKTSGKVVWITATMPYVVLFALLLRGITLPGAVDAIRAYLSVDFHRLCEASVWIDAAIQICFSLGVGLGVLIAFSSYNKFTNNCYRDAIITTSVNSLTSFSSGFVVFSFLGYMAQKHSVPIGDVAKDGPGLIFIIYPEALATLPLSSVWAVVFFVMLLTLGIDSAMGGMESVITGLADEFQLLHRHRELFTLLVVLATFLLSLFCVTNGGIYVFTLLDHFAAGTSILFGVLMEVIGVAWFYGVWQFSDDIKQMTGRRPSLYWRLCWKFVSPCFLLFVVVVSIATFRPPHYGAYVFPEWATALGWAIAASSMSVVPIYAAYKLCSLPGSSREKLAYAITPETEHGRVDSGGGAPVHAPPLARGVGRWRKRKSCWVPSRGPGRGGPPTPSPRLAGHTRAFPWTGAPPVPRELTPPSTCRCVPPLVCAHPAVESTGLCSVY

1) O=c1c(O)c(-c2ccc(O)c(O)c2)oc2cc(O)cc(O)c12; > 10 µM
2) O=c1cc(O)cc2oc(-c3ccc(O)c(O)c3)c(OC3OC(CO)C(O)C(O)C3O)c(O)c1-2 (stereo not drawn); > 10 µM

What does the record list as Ki for C[C@@H]1O[C@@H](Oc2c(-c3ccc(O)c(O)c3)oc3cc(O)cc(=O)c-3c2O)[C@H](O)[C@H](O)[C@H]1O ?
> 10 µM

----------
Please go through the items and note down their pKi.
- TEST_TARGET: UniProt P11229
- Sequence (P11229 whole entry): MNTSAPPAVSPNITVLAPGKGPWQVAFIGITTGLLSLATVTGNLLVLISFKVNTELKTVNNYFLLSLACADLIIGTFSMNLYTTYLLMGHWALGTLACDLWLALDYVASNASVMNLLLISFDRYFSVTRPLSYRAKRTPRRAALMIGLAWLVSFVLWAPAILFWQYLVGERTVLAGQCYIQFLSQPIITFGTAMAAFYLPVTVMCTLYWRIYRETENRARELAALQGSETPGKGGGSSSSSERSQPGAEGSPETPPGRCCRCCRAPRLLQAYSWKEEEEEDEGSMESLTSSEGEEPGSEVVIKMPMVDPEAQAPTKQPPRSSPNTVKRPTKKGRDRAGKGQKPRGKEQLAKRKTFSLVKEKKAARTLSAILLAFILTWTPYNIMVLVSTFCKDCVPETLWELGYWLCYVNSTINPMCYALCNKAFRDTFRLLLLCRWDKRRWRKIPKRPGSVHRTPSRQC
pKi: −log10 of the molar value.

Consider the reported pKi for these molecules:
1) C[C@@H]1O[C@@H](Oc2c(-c3ccc(O)c(O)c3)oc3cc(O)cc(=O)c-3c2O)[C@H](O)[C@H](O)[C@H]1O; < 5.00
2) C[C@@H]1O[C@@H](OC[C@H]2O[C@@H](Oc3c(-c4ccc(O)c(O)c4)oc4cc(O)cc(O)c4c3=O)[C@H](O)[C@@H](O)[C@@H]2O)[C@H](O)[C@H](O)[C@H]1O; < 5.00
3) O=c1cc(O)cc2oc(-c3ccc(O)c(O)c3)c(OC3OC(CO)C(O)C(O)C3O)c(O)c1-2 (centres undefined); < 5.00

What does the record list as pKi for O=c1c(O)c(-c2ccc(O)c(O)c2)oc2cc(O)cc(O)c12 ?
< 5.00
